Biological target: panel of 255 wild-type kinases (Homo sapiens)
Test: Kinase panel profiling at 1 µmol/L (MSA or IMAP), percentage inhibition
Format: biochemical
Conditions: kinase DDR1; 1 µmol/L single concentration; read-out: %-inhibition at 1 µmol/L, DDR1
inhibition at 1 µM values by entry
Expressed in %, but write only the number.

{"Compound": "Cc1cc(Nc2ncnc3ccc(NC4=NC(C)(C)CO4)cc23)ccc1Oc1ccn2ncnc2c1 [tucatinib]", "Target Or System": "panel of 255 wild-type kinases (Homo sapiens)", "Unit Text": "%", "inhibition at 1 µM": 9}
{"Compound": "C[C@H](Nc1ncnc2nc[nH]c12)c1cc2cccc(Cl)c2c(=O)n1-c1ccccc1 [duvelisib]", "Target Or System": "panel of 255 wild-type kinases (Homo sapiens)", "Unit Text": "%", "inhibition at 1 µM": 6}
{"Compound": "COc1cc2ncnc(Nc3ccc(F)c(Cl)c3)c2cc1NC(=O)/C=C/CN1CCCCC1 [dacomitinib]", "Target Or System": "panel of 255 wild-type kinases (Homo sapiens)", "Unit Text": "%", "inhibition at 1 µM": 101}
{"Compound": "COc1ccc(CN2C3CC2CN(c2ccc(-c4cc(OCC(C)(C)O)cn5ncc(C#N)c45)cn2)C3)cn1 [selpercatinib]", "Target Or System": "panel of 255 wild-type kinases (Homo sapiens)", "Unit Text": "%", "inhibition at 1 µM": 89}
{"Compound": "Cn1cnc2c(F)c(Nc3ccc(Br)cc3F)c(C(=O)NOCCO)cc21 [binimetinib]", "Target Or System": "panel of 255 wild-type kinases (Homo sapiens)", "Unit Text": "%", "inhibition at 1 µM": -0.162}

Input CCn1c(=O)c(-c2cc(NC(=O)Nc3ccccc3)c(F)cc2Br)cc2cnc(NC)cc21 [ripretinib] . Output inhibition at 1 µM: 90

Input Cc1nc(NC(=O)N2CCC[C@H]2C(N)=O)sc1-c1ccnc(C(C)(C)C(F)(F)F)c1 [alpelisib] . Output inhibition at 1 µM: 3.8

Input CCN1C(=O)N(c2c(F)c(OC)cc(OC)c2F)Cc2cnc3[nH]c(CN4CCOCC4)cc3c21 [pemigatinib] . Output inhibition at 1 µM: 41

Input CCc1nc(C(N)=O)c(Nc2ccc(N3CCC(N4CCN(C)CC4)CC3)c(OC)c2)nc1NC1CCOCC1 [gilteritinib] . Output inhibition at 1 µM: 99

Input COC(=O)N[C@@H](C)CNc1nccc(-c2cn(C(C)C)nc2-c2cc(Cl)cc(NS(C)(=O)=O)c2F)n1 [encorafenib] . Output inhibition at 1 µM: 0.442

###

Target: panel of 255 wild-type kinases (Homo sapiens, UniProt Q9UQB9)
Sequence (Q9UQB9 whole entry): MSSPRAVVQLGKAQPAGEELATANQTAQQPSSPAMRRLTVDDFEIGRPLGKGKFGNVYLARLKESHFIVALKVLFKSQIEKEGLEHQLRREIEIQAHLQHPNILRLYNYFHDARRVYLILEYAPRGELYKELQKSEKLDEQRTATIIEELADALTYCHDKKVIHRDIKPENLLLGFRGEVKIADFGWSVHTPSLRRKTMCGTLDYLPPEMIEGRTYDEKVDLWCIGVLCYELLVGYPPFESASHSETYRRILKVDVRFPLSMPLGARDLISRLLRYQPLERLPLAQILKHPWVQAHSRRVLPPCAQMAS
Assay: Kinase panel profiling at 1 µmol/L (MSA or IMAP), percentage inhibition
Assay type: biochemical
Settings: AurC kinase assay; 1 µmol/L single concentration; read-out: %-inhibition AurC
# cutoff 10% applies to inhibition at 1 µM; >= gives label 1, < gives label 0

Q. Identify whether the reported inhibition at 1 µM of the following compound is 10% or greater: Cn1cnc2c(F)c(Nc3ccc(Br)cc3F)c(C(=O)NOCCO)cc21 [binimetinib]
A. label 0

Q. Identify whether the reported inhibition at 1 µM of the following compound is 10% or greater: Cn1cnc2c(F)c(Nc3ccc(Br)cc3Cl)c(C(=O)NOCCO)cc21 [selumetinib]
A. label 0

Q. Identify whether the reported inhibition at 1 µM of the following compound is 10% or greater: CN1CCN(c2ccc(C(=O)Nc3n[nH]c4ccc(Cc5cc(F)cc(F)c5)cc34)c(NC3CCOCC3)c2)CC1 [entrectinib]
A. label 1

Q. Identify whether the reported inhibition at 1 µM of the following compound is 10% or greater: Cn1cc(-c2cc3c(N4CCN(c5ncc([C@@](C)(N)c6ccc(F)cc6)cn5)CC4)ncnn3c2)cn1 [avapritinib]
A. label 1

Q. Identify whether the reported inhibition at 1 µM of the following compound is 10% or greater: CCn1c(=O)c(-c2cc(NC(=O)Nc3ccccc3)c(F)cc2Br)cc2cnc(NC)cc21 [ripretinib]
A. label 0

Q. Identify whether the reported inhibition at 1 µM of the following compound is 10% or greater: CO[C@]1(C(=O)N[C@@H](C)c2ccc(-n3cc(F)cn3)nc2)CC[C@H](c2nc(C)cc(Nc3cc(C)[nH]n3)n2)CC1 [pralsetinib]
A. label 1

Q. Identify whether the reported inhibition at 1 µM of the following compound is 10% or greater: CCN1CCN(c2ccc(Nc3cc(N(C)C(=O)Nc4c(Cl)c(OC)cc(OC)c4Cl)ncn3)cc2)CC1 [infigratinib]
A. label 0

These data points were gathered from paper PMC9516332.
